Test system: A498
Test: NCI tumour cell line growth inhibition, 48 h
Calls of active or inactive are those of the source. Cut-off read from the data, not from the text of the source: active = GI50 up to about 1.1 µM and inactive = higher.
Exercise: for every item that follows, state its recorded GI50.

Request: GI50, test system A498, entry `Cc1ccccc1-n1c(=O)c2ncn(CCCl)c2n(-c2ccccc2C)c1=S`
> 100 µM (inactive)

Request: GI50, test system A498, entry CC(=O)O[C@@H]1C(C2CCCCC2)C=[N+]([O-])O[C@@H]1OC1CCCC1(c1ccccc1)c1ccccc1 (stereo not given in full)
7.41 µM (inactive)

Request: GI50, test system A498, entry `COc1cccc2c1-c1ccccc1[C@H](Nc1ccccc1)[C@@]2(C)O`
8.95 µM (inactive)

Request: GI50, test system A498, entry `CC(C)(C)C(=O)/C=C/c1ccc(Oc2ccccc2)cc1`
14.5 µM (inactive)

Request: GI50, test system A498, entry `CN(C)CCOc1ccc(I)cc1Cc1ccccc1`
13.9 µM (inactive)

Taken from ChEMBL document CHEMBL1201862.
